Assay: Maximum drug loading capacity
Type: physicochemical
Settings: IV, 37 °C, mean (sd)
In this section, each of the compounds is paired with its reported maximum drug loading capacity (loading).

Before answering, review these 6 worked examples.
compound	maximum drug loading capacity (loading)
C(=C\c1ccccc1)/CN1CCN(C(c2ccccc2)c2ccccc2)CC1	43.2 (1.7) mg/g
O=C(Nc1ccc([N+](=O)[O-])cc1Cl)c1cc(Cl)ccc1O [Niclosamide]	80.7 (4.5) mg/g
CCOC(=O)C1=C(C)NC(C)=C(C(=O)OC)C1c1cccc(Cl)c1Cl (stereo not shown)	218.0 (9.3) mg/g
C#C[C@]1(O)CC[C@H]2[C@@H]3CCC4=Cc5oncc5C[C@]4(C)[C@H]3CC[C@@]21C	50.1 (1.2) mg/g
COc1ccc2c(c1)c(CC(=O)O)c(C)n2C(=O)c1ccc(Cl)cc1	121.3 (4.2) mg/g
O=C(CCCN1CCC(O)(c2ccc(Cl)cc2)CC1)c1ccc(F)cc1	21.5 (2.1) mg/g

Then this compound:
Exam item: Look up maximum drug loading capacity (loading) for this compound: CC(=O)N1CCN(c2ccc(OCC3COC(Cn4ccnc4)(c4ccc(Cl)cc4Cl)O3)cc2)CC1 (stereo not shown)
Marked response: 29.9 (1.5) mg/g

---

Experiment: Solid state characterization of drug precipitate
Type: physicochemical
Conditions: IIIB-MC, 60 min of digestion, PLM and Raman
reported-endpoint: solid form of precipitated drug in the pellet

structure-smiles	assay-result
C#C[C@]1(O)CC[C@H]2[C@@H]3CCC4=Cc5oncc5C[C@]4(C)[C@H]3CC[C@@]21C	crystalline form
COC1=CC(=O)C[C@@H](C)[C@]12Oc1c(Cl)c(OC)cc(OC)c1C2=O	crystalline form

---

In this section, each of the compounds is paired with its reported maximum drug loading capacity (loading).
Test: Maximum drug loading capacity
Type: physicochemical
Settings: IIIB-MC, 37 °C, mean (sd)

Before answering, review these 6 worked examples.
compound	maximum drug loading capacity (loading)
COc1ccc2c(c1)c(CC(=O)O)c(C)n2C(=O)c1ccc(Cl)cc1	84.7 (3.5) mg/g
CC(=O)N1CCN(c2ccc(OCC3COC(Cn4ccnc4)(c4ccc(Cl)cc4Cl)O3)cc2)CC1 (stereo not shown)	23.0 (1.0) mg/g
O=C(Nc1ccc([N+](=O)[O-])cc1Cl)c1cc(Cl)ccc1O [Niclosamide]	50.9 (1.6) mg/g
C#C[C@]1(O)CC[C@H]2[C@@H]3CCC4=Cc5oncc5C[C@]4(C)[C@H]3CC[C@@]21C	38.8 (1.4) mg/g
CCOC(=O)C1=C(C)NC(C)=C(C(=O)OC)C1c1cccc(Cl)c1Cl (stereo not shown)	176.2 (2.1) mg/g
O=C(CCCN1CCC(O)(c2ccc(Cl)cc2)CC1)c1ccc(F)cc1	17.7 (1.2) mg/g

Then this compound:
Exam item: Look up maximum drug loading capacity (loading) for this compound: `C(=C\c1ccccc1)/CN1CCN(C(c2ccccc2)c2ccccc2)CC1`
Marked response: 41.8 (0.7) mg/g

---

Assay: Drug solubility in lipolysis medium
Assay type: physicochemical
Settings: dispersion medium of blank (placebo) LBF lipolysis, all LBFs, pH 6.5
In this section, each of the compounds is paired with its reported solubility at 24 h.

compound	reported-endpoint	assay-result
O=C(Nc1ccc([N+](=O)[O-])cc1Cl)c1cc(Cl)ccc1O [Niclosamide]	solubility at 24 h	< 80 µg/mL

Exam item: Look up solubility at 24 h for this compound: COc1ccc2c(c1)c(CC(=O)O)c(C)n2C(=O)c1ccc(Cl)cc1 [Indomethacin]
Marked response: 1500 to 1700 µg/mL

---

Assay: Dose number
Assay type: physicochemical
Conditions: IV, 80% of maximum drug load, 45 mL digestion medium
reported-endpoint: Do 80%

molecule	Do 80%
C#C[C@]1(O)CC[C@H]2[C@@H]3CCC4=Cc5oncc5C[C@]4(C)[C@H]3CC[C@@]21C [Danazol]	13.5
COC1=CC(=O)C[C@@H](C)[C@]12Oc1c(Cl)c(OC)cc(OC)c1C2=O [Griseofulvin]	4.6
C(=C\c1ccccc1)/CN1CCN(C(c2ccccc2)c2ccccc2)CC1 [Cinnarizine]	2.1
O=C(Nc1ccc([N+](=O)[O-])cc1Cl)c1cc(Cl)ccc1O [Niclosamide]	55.8
COc1ccc2c(c1)c(CC(=O)O)c(C)n2C(=O)c1ccc(Cl)cc1 [Indomethacin]	2.4

P. CCOC(=O)C1=C(C)NC(C)=C(C(=O)OC)C1c1cccc(Cl)c1Cl (centres unmarked) [Felodipine]
Q. CC(=O)N1CCN(c2ccc(OCC3COC(Cn4ccnc4)(c4ccc(Cl)cc4Cl)O3)cc2)CC1 (centres unmarked) [Ketoconazole]
R. O=C(CCCN1CCC(O)(c2ccc(Cl)cc2)CC1)c1ccc(F)cc1 [Haloperidol]
Exam item: Endpoint returns the given molecules ordered by ascending Do 80%. Output the labels ranked as instructed.
Marked response: R, Q, P

---

Experiment: Dose number
Type: physicochemical
Details: IIIA-LC, 80% of maximum drug load, 45 mL digestion medium
reported-endpoint: Do 80%

molecule	Do 80%
CCOC(=O)C1=C(C)NC(C)=C(C(=O)OC)C1c1cccc(Cl)c1Cl (stereo not shown) [Felodipine]	6.8

P. O=C(CCCN1CCC(O)(c2ccc(Cl)cc2)CC1)c1ccc(F)cc1 [Haloperidol]
Q. C#C[C@]1(O)CC[C@H]2[C@@H]3CCC4=Cc5oncc5C[C@]4(C)[C@H]3CC[C@@]21C [Danazol]
R. COc1ccc2c(c1)c(CC(=O)O)c(C)n2C(=O)c1ccc(Cl)cc1 [Indomethacin]
Exam item: Rank entries according to their Do 80%, from the largest number down. Output the labels ranked as instructed.
Marked response: Q, R, P

---

Assay: Dose number
Assay type: physicochemical
Settings: IIIA-LC, 80% of maximum drug load, 45 mL digestion medium
reported-endpoint: Do 80%

compound	Do 80%
C(=C\c1ccccc1)/CN1CCN(C(c2ccccc2)c2ccccc2)CC1 [Cinnarizine]	0.2

P. CC(=O)N1CCN(c2ccc(OCC3COC(Cn4ccnc4)(c4ccc(Cl)cc4Cl)O3)cc2)CC1 (stereo not shown) [Ketoconazole]
Q. COC1=CC(=O)C[C@@H](C)[C@]12Oc1c(Cl)c(OC)cc(OC)c1C2=O [Griseofulvin]
R. O=C(Nc1ccc([N+](=O)[O-])cc1Cl)c1cc(Cl)ccc1O [Niclosamide]
Exam item: Rank entries according to their Do 80%, from the largest number down. Output the labels ranked as instructed.
Marked response: R, Q, P
(R: 14.5, Q: 1.4, P: 0.2)

---

Assay: Dose number
Type: physicochemical
Details: IIIB-MC, 80% of maximum drug load, 45 mL digestion medium
reported-endpoint: Do 80%

molecule	assay-result
C(=C\c1ccccc1)/CN1CCN(C(c2ccccc2)c2ccccc2)CC1 [Cinnarizine]	0.5
CCOC(=O)C1=C(C)NC(C)=C(C(=O)OC)C1c1cccc(Cl)c1Cl (stereo not shown) [Felodipine]	9.1

P. O=C(Nc1ccc([N+](=O)[O-])cc1Cl)c1cc(Cl)ccc1O [Niclosamide]
Q. O=C(CCCN1CCC(O)(c2ccc(Cl)cc2)CC1)c1ccc(F)cc1 [Haloperidol]
Exam item: Lowest Do 80%? choose P or Q API: response body contains the label of the selected item.
Marked response: Q
